assay: basal 3T3-L1 adipocyte mitochondrial potential changes, profiling panel, cell-based, JC-1 fluorescence, 3T3-L1 adipocytes, 24 h, 100 nL compound (AID 1168); conditions: JC-1 mitochondrial fluorescence, higher = more signal, called active from +8 up or from −8 down; further: test concentration not given here
PARAMETER MEASURED: z-score
The reply should be a number, written without any unit.

query: Quickly give me recorded z-score for C[C@H]1NC(=O)C([C@@H](C)OCc2ccccc2)NC(=O)[C@@]23C(=O)N[C@@H](Cc4ccccc4)C2[C@H](C)[C@@]2(C)O[C@H]2C3/C=C/C/C=C\CNC1=O (stereo partly drawn)
result: 0.346

query: Quote z-score reported for `C=C(/C(=C/C[C@H](OC(=O)c1ccncc1)c1ccccc1OCCO)c1cc(C(=O)OC)ccc1OC)C(C)C` please.
result: -0.617

query: # return recorded z-score for entry CCC(CC)C(O)C1C=CC2C(=O)N(C)C(=O)C2N1N1CCCCC1 (stereo not drawn)
result: -0.115

query: Fill in reported z-score for this entry: `CCOC(=O)C1=CC[C@@H](c2ccccc2Cl)N(S(=O)(=O)c2ccc(C)cc2)[C@H]1c1cccc(OC)c1`
result: -1.39

query: Supply recorded z-score for CC(=O)n1cc(C(O)C2C=CC3C(=O)N(c4ccccc4)C(=O)C3N2Nc2ccccc2F)c2ccccc21 (stereo not drawn) here.
result: -1.2

query: Given the compound `Cc1ccc(S[C@]2(C(=O)NCCCN(C)C)CC(=O)N(Cc3ccccc3Cl)[C@@H]2c2ccc(CO)cc2I)cc1` , write its reported z-score.
result: 0.722

query: Specify z-score for `CCCCC(=C=CC[C@@H](O)c1cccc(OCCO)c1)C[C@@H](O)COCc1ccccc1` and stop.
result: 0.436

query: Please list z-score recorded for the compound `[N-]=[N+]=NCc1ccccc1[C@@H]1OC(c2ccc(OCCCO)cc2)=N[C@]1(Cc1ccccc1)C(=O)NCc1ccccc1`
result: 0.594
